Tested on: caterpillars of the armyworm (Spodoptera frugiperda)
Assay: Spodoptera frugiperda test (SPODFR spray treatment)
Assay type: in vivo
Conditions: Spodoptera frugiperda, in Zea mays, foliar, read-out: effect in % (caterpillars killed)
attribute-measured: pest or weed control at 100 g/ha

# annotated cases, reported pest or weed control at 100 g/ha shown
{"compound": "Cc1cc(I)cc(C(=O)NC2CC2)c1NC(=O)c1cc(Cn2nnnc2C(F)(F)F)nn1-c1ncccc1Cl", "pest or weed control at 100 g/ha": "≥ 80%"}
{"compound": "Cc1cc(I)cc(C(=O)NC2CC2)c1NC(=O)c1cc(Cn2nnc(C(F)(F)F)n2)nn1-c1ncccc1Cl", "pest or weed control at 100 g/ha": "≥ 80%"}
{"compound": "COCC(C)NC(=O)c1cc(C#N)cc(C)c1NC(=O)c1cc(Cn2nnc(C(F)(F)F)n2)nn1-c1ncccc1Cl (stereo not shown)", "pest or weed control at 100 g/ha": "≥ 80%"}
{"compound": "Cc1cc(C)c(NC(=O)c2cc(Cn3nnc(C(F)(F)F)n3)nn2-c2ncccc2Cl)c(C(=O)NCC#N)c1", "pest or weed control at 100 g/ha": "≥ 80%"}
{"compound": "CNC(=O)c1cc(Cl)cc(C)c1NC(=O)c1cc(Cn2nnc(C(F)(C(F)(F)F)C(F)(F)F)n2)nn1-c1ncccc1Cl", "pest or weed control at 100 g/ha": "≥ 80%"}

**Query** Identify measured pest or weed control at 100 g/ha associated with `CCNC(=O)c1cc(Cl)cc(C)c1NC(=O)c1cc(Cn2nnc(C(F)(F)F)n2)nn1-c1ncccc1Cl`
**Result** ≥ 80%

**Query** Identify measured pest or weed control at 100 g/ha associated with `Cc1cc(C#N)cc(C(=O)NCC(C)(C)CF)c1NC(=O)c1cc(Cn2nnc(C(F)(F)F)n2)nn1-c1ncccc1Cl`
**Result** ≥ 80%
